Measured EC50 accompanies every entry in the list below.
tested-target: human activated kallikrein enzyme (Homo sapiens (Human))
Sequence (P03952 391-638): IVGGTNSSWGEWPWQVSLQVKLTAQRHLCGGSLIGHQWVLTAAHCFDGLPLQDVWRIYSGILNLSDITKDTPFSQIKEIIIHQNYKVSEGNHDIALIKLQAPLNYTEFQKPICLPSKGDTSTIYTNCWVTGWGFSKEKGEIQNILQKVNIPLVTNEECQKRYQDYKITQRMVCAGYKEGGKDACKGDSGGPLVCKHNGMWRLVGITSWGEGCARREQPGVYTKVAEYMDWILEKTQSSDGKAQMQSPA
Sequence (P03952 20-390 partner): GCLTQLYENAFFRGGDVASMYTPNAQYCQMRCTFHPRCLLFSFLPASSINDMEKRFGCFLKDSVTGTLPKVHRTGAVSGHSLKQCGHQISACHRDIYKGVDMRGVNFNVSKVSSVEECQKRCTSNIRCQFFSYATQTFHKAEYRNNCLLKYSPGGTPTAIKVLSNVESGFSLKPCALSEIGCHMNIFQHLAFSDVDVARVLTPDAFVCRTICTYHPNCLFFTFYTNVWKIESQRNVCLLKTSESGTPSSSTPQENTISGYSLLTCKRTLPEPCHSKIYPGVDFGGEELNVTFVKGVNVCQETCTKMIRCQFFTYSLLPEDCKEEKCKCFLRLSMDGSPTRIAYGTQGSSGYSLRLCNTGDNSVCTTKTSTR
assay-details: Plasma kallikrein inhibition assay with fluorogenic peptide substrate, 500 pM activated kallikrein format
Format: biochemical
experimental-context: 500 pM activated kallikrein; 300 uM Pro-Phe-Arg-7-amido-4-methylcoumarin substrate; 30 min preincubation, 10 min reaction at RT; read-out: Primary Dose Response Assay: Average EC50

Reference set, count: 5
1) CC(NS(=O)(=O)c1cnn(Cc2cn3cc(C4CC4)ccc3n2)c1)c1cccc(Cl)c1 (stereo not shown) [Example I-38] : > 7100 nM
2) O=C(NCc1cc2c(Cl)c[nH]c2cn1)c1cn(Cc2cn3cc(C4CC4)ccc3n2)nn1 [Example I-146] : 1 to 10 nM
3) CCOC(=O)CCc1cc(C2CC2)cn2cc(Cn3cc(C(=O)NCc4c(-n5cnnn5)ccc(Cl)c4F)nn3)nc12 [Example I-113] : ≤ 1 nM
4) COc1ccc(-n2cnnn2)c(CNC(=O)c2cc3n(n2)CCC3c2cn3cc(C4CC4)ccc3n2)c1F (stereo not shown) [Example I-2] : 1 to 10 nM
5) N#Cc1ccc(CNS(=O)(=O)c2cnn(Cc3cn4cc(C5CC5)ccc4n3)c2)cc1 [Example I-34] : > 7100 nM

Ask: Report EC50 for COc1ccc(-c2c[nH]nn2)c(CNC(=O)c2cn(Cc3cn4cc(C5CC5)ccc4n3)nn2)c1F [Example I-50] tested on human activated kallikrein enzyme (Homo sapiens (Human)).
Result: > 7100 nM

Ask: Report EC50 for Cc1cc2[nH]cc(Cl)c2c(C)c1CNC(=O)c1cnn(Cc2cn3cc(C4CC4)ccc3n2)c1 [Example I-123] tested on human activated kallikrein enzyme (Homo sapiens (Human)).
Result: 10 to 100 nM
